Experiment: Chemical stability assessed as enzymatic stability at 100 uM after 20 mins in presence of human NTPDase2
Type: physicochemical

Compound: BP(=O)(OC[C@H]1O[C@@H](n2cnc3c(N)nc(SC)nc32)[C@H](O)[C@@H]1O)OP(=O)(O)C(F)(F)P(=O)(O)O (stereo in doubt; 10B)
Activity: 0.9%

Compound: BP(=O)(OC[C@H]1O[C@@H](n2cnc3c(N)ncnc32)[C@H](O)[C@@H]1O)OP(=O)(O)C(Cl)(Cl)P(=O)(O)O (stereo in doubt; 11A)
Activity: 1.3%

Compound: CSc1nc(N)c2ncn([C@@H]3O[C@H](COP(=O)(O)C(F)(F)P(=O)(O)O)[C@@H](O)[C@H]3O)c2n1
Activity: 2.4%

---

Experiment: Chemical stability assessed as enzymatic stability at 100 uM after 20 mins in presence of human NTPDase1
Assay type: physicochemical
The compounds listed here are annotated with their Activity.
Value Type: Activity (%)

Compound: BP(=O)(OC[C@H]1O[C@@H](n2cnc3c(N)ncnc32)[C@H](O)[C@@H]1O)OP(=O)(O)C(Cl)(Cl)P(=O)(O)O (stereo in doubt; 11A)
Value Type: Activity
Measured Value: 5.5
//
Compound: BP(=O)(OC[C@H]1O[C@@H](n2cnc3c(N)nc(SC)nc32)[C@H](O)[C@@H]1O)OP(=O)(O)C(F)(F)P(=O)(O)O (stereo in doubt; 10B)
Value Type: Activity
Measured Value: 0.4
//
Compound: BP(=O)(OC[C@H]1O[C@@H](n2cnc3c(N)ncnc32)[C@H](O)[C@@H]1O)OP(=O)(O)C(Cl)(Cl)P(=O)(O)O (stereo in doubt; 11B)
Value Type: Activity
Measured Value: 3.2

---

Test: Chemical stability assessed as enzymatic stability at 100 uM after 20 mins in presence of human NPP3
Type: physicochemical
Label Condition met when Activity < 2%; otherwise Condition not met.

Compound: CSc1nc(N)c2ncn([C@@H]3O[C@H](COP(=O)(O)OP(=O)(O)C(F)(F)P(=O)(O)O)[C@@H](O)[C@H]3O)c2n1
Category Label: Condition met

Compound: BP(=O)(OC[C@H]1O[C@@H](n2cnc3c(N)nc(SC)nc32)[C@H](O)[C@@H]1O)OP(=O)(O)C(F)(F)P(=O)(O)O (stereo in doubt; 10A)
Category Label: Condition not met

Compound: BP(=O)(OC[C@H]1O[C@@H](n2cnc3c(N)nc(SC)nc32)[C@H](O)[C@@H]1O)OP(=O)(O)C(F)(F)P(=O)(O)O (stereo in doubt; 10B)
Category Label: Condition not met

Compound: CSc1nc(N)c2ncn([C@@H]3O[C@H](COP(=O)(O)C(Cl)(Cl)P(=O)(O)O)[C@@H](O)[C@H]3O)c2n1
Category Label: Condition met

Compound: BP(=O)(OC[C@H]1O[C@@H](n2cnc3c(N)nc(SC)nc32)[C@H](O)[C@@H]1O)OP(=O)(O)C(Cl)(Cl)P(=O)(O)O (stereo in doubt; 12A)
Category Label: Condition not met

Compound: CSc1nc(N)c2ncn([C@@H]3O[C@H](COP(=O)(O)OP(=O)(O)C(Cl)(Cl)P(=O)(O)O)[C@@H](O)[C@H]3O)c2n1
Category Label: Condition met

---

Test: Chemical stability assessed as enzymatic stability at 100 uM after 20 mins in presence of human NTPDase2
Type: physicochemical
Exam item: assign condition met to entries whose Activity is below 1% and condition not met to entries at or above 1%. Note that a value of exactly 1% receives condition not met.

Compound: CSc1nc(N)c2ncn([C@@H]3O[C@H](COP(=O)(O)OP(=O)(O)C(Cl)(Cl)P(=O)(O)O)[C@@H](O)[C@H]3O)c2n1
Category Label: condition met
--
Compound: CSc1nc(N)c2ncn([C@@H]3O[C@H](COP(=O)(O)C(Cl)(Cl)P(=O)(O)O)[C@@H](O)[C@H]3O)c2n1
Category Label: condition not met
--
Compound: BP(=O)(OC[C@H]1O[C@@H](n2cnc3c(N)ncnc32)[C@H](O)[C@@H]1O)OP(=O)(O)C(Cl)(Cl)P(=O)(O)O (stereo in doubt; 11B)
Category Label: condition not met
--
Compound: BP(=O)(OC[C@H]1O[C@@H](n2cnc3c(N)nc(SC)nc32)[C@H](O)[C@@H]1O)OP(=O)(O)C(F)(F)P(=O)(O)O (stereo in doubt; 10A)
Category Label: condition not met
--
Compound: BP(=O)(OC[C@H]1O[C@@H](n2cnc3c(N)nc(SC)nc32)[C@H](O)[C@@H]1O)OP(=O)(O)C(Cl)(Cl)P(=O)(O)O (stereo in doubt; 12A)
Category Label: condition not met
--
Compound: CSc1nc(N)c2ncn([C@@H]3O[C@H](COP(=O)(O)OP(=O)(O)C(F)(F)P(=O)(O)O)[C@@H](O)[C@H]3O)c2n1
Category Label: condition not met

---

# reported Activity; entries follow
Assay: Chemical stability assessed as enzymatic stability at 100 uM after 20 mins in presence of human NPP1
Type: physicochemical

Molecule: BP(=O)(OC[C@H]1O[C@@H](n2cnc3c(N)nc(SC)nc32)[C@H](O)[C@@H]1O)OP(=O)(O)C(F)(F)P(=O)(O)O (stereo in doubt; 10B)
Activity: 3.4%
--
Molecule: CSc1nc(N)c2ncn([C@@H]3O[C@H](COP(=O)(O)C(Cl)(Cl)P(=O)(O)O)[C@@H](O)[C@H]3O)c2n1
Activity: 3.3%
--
Molecule: BP(=O)(OC[C@H]1O[C@@H](n2cnc3c(N)ncnc32)[C@H](O)[C@@H]1O)OP(=O)(O)C(Cl)(Cl)P(=O)(O)O (stereo in doubt; 11A)
Activity: 5.3%
--
Molecule: CSc1nc(N)c2ncn([C@@H]3O[C@H](COP(=O)(O)OP(=O)(O)C(F)(F)P(=O)(O)O)[C@@H](O)[C@H]3O)c2n1
Activity: 6.2%
--
Molecule: BP(=O)(OC[C@H]1O[C@@H](n2cnc3c(N)nc(SC)nc32)[C@H](O)[C@@H]1O)OP(=O)(O)C(Cl)(Cl)P(=O)(O)O (stereo in doubt; 12B)
Activity: 4%
--
Molecule: CSc1nc(N)c2ncn([C@@H]3O[C@H](COP(=O)(O)OP(=O)(O)C(Cl)(Cl)P(=O)(O)O)[C@@H](O)[C@H]3O)c2n1
Activity: 5.8%

---

Parameter: half-life. Scope: all listed entries.
Experiment: Chemical stability assessed as half life of hydrolysis at pH 1.4
Type: physicochemical
Settings: buffer

Compound: BP(=O)(OC[C@H]1O[C@@H](n2cnc3c(N)nc(SC)nc32)[C@H](O)[C@@H]1O)OP(=O)(O)CP(=O)(O)O (some centres not stated)
Unit Spec: h
half-life: 14.5

Compound: BP(=O)(OC[C@H]1O[C@@H](n2cnc3c(N)ncnc32)[C@H](O)[C@@H]1O)OP(=O)(O)CP(=O)(O)O (some centres not stated)
Unit Spec: h
half-life: 19

---

Species on record: Oryctolagus cuniculus
Test: Antihypertensive activity in New Zealand rabbit assessed as reduction in intraocular pressure at 100 uM after 8 hrs relative to control
Format: functional
Conditions: Eye
The source made the active and inactive calls. No cut-off for these calls is given here.

Compound: CSc1nc(N)c2ncn([C@@H]3O[C@H](COP(=O)(O)C(Cl)(Cl)P(=O)(O)O)[C@@H](O)[C@H]3O)c2n1
Activity: Active
--
Compound: CSc1nc(N)c2ncn([C@@H]3O[C@H](COP(=O)(O)C(F)(F)P(=O)(O)O)[C@@H](O)[C@H]3O)c2n1
Activity: Active
--
Compound: BP(=O)(OC[C@H]1O[C@@H](n2cnc3c(N)nc(SC)nc32)[C@H](O)[C@@H]1O)OP(=O)(O)C(Cl)(Cl)P(=O)(O)O (stereo in doubt; 12A)
Activity: Active
--
Compound: BP(=O)(OC[C@H]1O[C@@H](n2cnc3c(N)ncnc32)[C@H](O)[C@@H]1O)OP(=O)(O)C(Cl)(Cl)P(=O)(O)O (stereo in doubt; 11A)
Activity: inactive
--
Compound: BP(=O)(OC[C@H]1O[C@@H](n2cnc3c(N)nc(SC)nc32)[C@H](O)[C@@H]1O)OP(=O)(O)C(Cl)(Cl)P(=O)(O)O (stereo in doubt; 12B)
Activity: Active
--
Compound: BP(=O)(OC[C@H]1O[C@@H](n2cnc3c(N)ncnc32)[C@H](O)[C@@H]1O)OP(=O)(O)C(Cl)(Cl)P(=O)(O)O (stereo in doubt; 11B)
Activity: Active
--
Compound: CSc1nc(N)c2ncn([C@@H]3O[C@H](COP(=O)(O)OP(=O)(O)C(F)(F)P(=O)(O)O)[C@@H](O)[C@H]3O)c2n1
Activity: inactive

---

Experiment: Chemical stability assessed as enzymatic stability at 100 uM after 20 mins in presence of human NTPDase1
Type: physicochemical

Compound: CSc1nc(N)c2ncn([C@@H]3O[C@H](COP(=O)(O)C(F)(F)P(=O)(O)O)[C@@H](O)[C@H]3O)c2n1
Activity [%]: 1.3

Compound: BP(=O)(OC[C@H]1O[C@@H](n2cnc3c(N)nc(SC)nc32)[C@H](O)[C@@H]1O)OP(=O)(O)C(Cl)(Cl)P(=O)(O)O (stereo in doubt; 12A)
Activity [%]: 0.7

Compound: CSc1nc(N)c2ncn([C@@H]3O[C@H](COP(=O)(O)OP(=O)(O)C(Cl)(Cl)P(=O)(O)O)[C@@H](O)[C@H]3O)c2n1
Activity [%]: 0.5

Compound: CSc1nc(N)c2ncn([C@@H]3O[C@H](COP(=O)(O)OP(=O)(O)C(F)(F)P(=O)(O)O)[C@@H](O)[C@H]3O)c2n1
Activity [%]: 2.6

Compound: BP(=O)(OC[C@H]1O[C@@H](n2cnc3c(N)nc(SC)nc32)[C@H](O)[C@@H]1O)OP(=O)(O)C(F)(F)P(=O)(O)O (stereo in doubt; 10A)
Activity [%]: 1
